B1: Pistol ribozyme (parent)
chain: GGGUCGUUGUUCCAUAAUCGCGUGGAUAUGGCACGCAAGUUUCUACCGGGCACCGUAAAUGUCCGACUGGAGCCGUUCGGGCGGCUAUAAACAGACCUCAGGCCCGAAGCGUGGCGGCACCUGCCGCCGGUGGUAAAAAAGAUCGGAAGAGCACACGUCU

variants of: B1; test: aptazyme ON/OFF ratio, guanine; higher = stronger switching; co-transcriptional cleavage with and without guanine
aptazyme ON/OFF ratio listing for selected variants.

>  <VARIANT KEY>
U7A U8G G9A U10C U11A C12G C13U

>  <aptazyme ON/OFF ratio>
1.22

$$$$
>  <VARIANT KEY>
U7C U8C G9C U10C C12A

>  <aptazyme ON/OFF ratio>
1.08

$$$$
>  <VARIANT KEY>
U7A U10G U11A C12A C13A

>  <aptazyme ON/OFF ratio>
1.17

$$$$
>  <VARIANT KEY>
G9C C12A C13A

>  <aptazyme ON/OFF ratio>
1.29

$$$$
>  <VARIANT KEY>
U8A G9A U10A U11G C13G

>  <aptazyme ON/OFF ratio>
1.08

$$$$
>  <VARIANT KEY>
U7C G9U U11A C13G

>  <aptazyme ON/OFF ratio>
1.03

$$$$
>  <VARIANT KEY>
U10G C12A C13G

>  <aptazyme ON/OFF ratio>
1.06

$$$$
>  <VARIANT KEY>
U7G U8C U10A C13U

>  <aptazyme ON/OFF ratio>
1.12

$$$$
>  <VARIANT KEY>
G9U U10G U11C C12A C13U

>  <aptazyme ON/OFF ratio>
1.23

$$$$
>  <VARIANT KEY>
U8C U10A U11A C12G C13G

>  <aptazyme ON/OFF ratio>
1.35

$$$$
>  <VARIANT KEY>
U7C U10A U11A C12U C13U

>  <aptazyme ON/OFF ratio>
1.27

$$$$
